- Tested on: Raji;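 note: cell viability assay measuring inhibition of Raji cell growth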
- assay_details: cells
- Format: functional, cell-based
- run_conditions: Homo sapiens
- Description: SANGER: Inhibition of human Raji cell growth in a cell viability assay.
pIC50: −log10 of the molar value.
property_name: pIC50

Exam item: Consider the molecule shown here: O=C(/C=C/c1ccccc1)NC(NC(=S)Nc1cccc2cccnc12)C(Cl)(Cl)Cl (stereo not drawn) What is its recorded pIC50?
Marked response: < 4.80

Exam item: Field entry: C[C@]1(O)C[C@@H](c2nc(-c3ccc4ccc(-c5ccccc5)nc4c3)c3c(N)nccn32)C1
Marked response: < 5.59

Exam item: Repeat for the following molecule: Cn1cncc1[C@@](N)(c1ccc(Cl)cc1)c1ccc2c(c1)c(-c1cccc(Cl)c1)cc(=O)n2C
Marked response: 4.90

---

- Test system: HAL-01;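 note: growth inhibition of human HAL-01 cells, read out with a cell viability assay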
- assay_details: cells
- Assay type: functional, cell-based
- run_conditions: Homo sapiens
- Description: SANGER: Inhibition of human HAL-01 cell growth in a cell viability assay.
pIC50: −log10 of the molar value.
property_name: pIC50

Exam item: What does the record list as pIC50 for Cc1ccc(Nc2nccc(N(C)c3ccc4c(C)n(C)nc4c3)n2)cc1S(N)(=O)=O [PAZOPANIB] ?
Marked response: < 5.10

Exam item: Further, for CO[C@H]1C[C@@H]2CC[C@@H](C)[C@@](O)(O2)C(=O)C(=O)N2CCCC[C@H]2C(=O)O[C@H]([C@H](C)C[C@@H]2CC[C@@H](O)[C@H](OC)C2)CC(=O)[C@H](C)/C=C(\C)[C@@H](O)[C@@H](OC)C(=O)[C@H](C)C[C@H](C)/C=C/C=C/C=C/1C [SIROLIMUS] ?
Marked response: < 7.00

Exam item: Same lookup for CC1=C2C[C@H]3[C@@H](CC=C4C[C@@H](O)CC[C@@]43C)[C@@H]2CC[C@]12O[C@@H]1C[C@H](C)CN[C@H]1[C@H]2C [CYCLOPAMINE] , please.
Marked response: < 4.80

Exam item: What would you report for Cc1cnc(-c2cnc(NCCNc3ccc(C#N)cn3)nc2-c2ccc(Cl)cc2Cl)[nH]1 [LADUVIGLUSIB] ?
Marked response: < 5.59

---

- Test system: OVCAR-4;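 note: growth inhibition of human OVCAR-4 cells, measured with a cell viability assay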
- assay_details: cells
- Type: functional, cell-based, Homo sapiens
- run_conditions: Homo sapiens, OVCAR-4
- Description: SANGER: Inhibition of human OVCAR-4 cell growth in a cell viability assay.
pIC50: −log10 of the molar value.
property_name: pIC50

Cn1cncc1[C@@](N)(c1ccc(Cl)cc1)c1ccc2c(c1)c(-c1cccc(Cl)c1)cc(=O)n2C	5.66
C=CCc1cccc(/C=N/NC(=O)CN2CCN(Cc3ccccc3)CC2)c1O	< 5.59

Note: attention shifts to another entry.
Exam item: What pIC50 value was documented for this compound, CC(=O)O[C@@H]1[C@@H](OC(C)=O)[C@@H](O)[C@H](Oc2c(-c3ccc(O)cc3)oc3cc(O)cc(O)c3c2=O)O[C@H]1C ?
Marked response: < 5.00

---

Measured IC50 by item
- Tested on: SW626
- assay_details: cells
- Format: functional, cell-based, Homo sapiens
- run_conditions: Homo sapiens, SW626
- Description: SANGER: Inhibition of human SW626 cell growth in a cell viability assay.

Exam item: I am curious: what IC50 value has been reported for C[C@]1(O)C[C@@H](c2nc(-c3ccc4ccc(-c5ccccc5)nc4c3)c3c(N)nccn32)C1 ?
Marked response: > 2.56 µM

Exam item: Again, but for O=C1N=C(NCc2cccs2)S/C1=C\c1ccc2ncccc2c1
Marked response: > 5 µM

Exam item: Same read-out for COc1ccc(-c2ccc3c(N4CCOC[C@@H]4C)nc(N4CCOC[C@@H]4C)nc3n2)cc1CO ?
Marked response: > 2 µM
